- target system: BCL6 (Homo sapiens, UniProt P41182)
- Construct: endogenous in cells; host or cells: T47D breast cancer epithelial cells
- assay method text: Immunofluorescence protocol for high content imaging of BCL6 (degradation) in T47D cells, 3 days compound treatment
- Format: cell-based
- measurement setup: T47D cells, 3 days compound treatment, read-out: Mean Dmax (%)** category
Quick reference: Dmax of the listed items.

Examples from the recorded data:
CNC(=O)COc1cc2cc(Nc3nc(N4CCC(O[C@H]5C[C@H](N6C[C@H](C)N(c7ccc8c(c7)CN(C7CCC(=O)NC7=O)C8=O)[C@@H](C)C6)C5)CC4)ncc3Cl)ccc2n(C(C)C)c1=O (relative stereo) [Compound 180]    ≥ 70%
CNC(=O)COc1cc2cc(Nc3nc(N4CCC(CN5CCC6(CC5)CN(c5ccc7c(c5F)CN(C5CCC(=O)NC5=O)C7=O)C6(C)C)CC4)ncc3Cl)ccc2n(C(C)C)c1=O (centres unmarked) [Compound 162]    ≥ 70%
CNC(=O)COc1cc2cc(Nc3nc(N4CCC(O[C@H]5C[C@H](N6CCN(c7ccc8c(c7Cl)CN(C7CCC(=O)NC7=O)C8=O)[C@@H](C)C6)C5)CC4)ncc3Cl)ccc2n(C(C)C)c1=O (some centres unmarked) [Compound 206]    ≥ 70%
CNC(=O)COc1cc2cc(Nc3nc(N4CCC(F)(CN5CCC6(CC5)CN(c5ccc7c(c5)C(=O)N(C5CCC(=O)NC5=O)C7=O)C6)CC4)ncc3Cl)ccc2n(C(C)C)c1=O (centres unmarked) [Compound 43]    50 to 70%
CNC(=O)COc1cc2cc(Nc3nc(N4CCC(CN5CC6(CCN(c7cccc8c7CN(C7CCC(=O)NC7=O)C8=O)CC6(F)F)C5)CC4)ncc3Cl)ccc2n(C(C)C)c1=O (centres unmarked) [Compound 125]    50 to 70%
CNC(=O)COc1cc2cc(Nc3nc(N4CCC(CN5CC6(CCN(c7ccc8c(c7OC)CN(C7CCC(=O)NC7=O)C8=O)CC6)C5)CC4)ncc3Cl)ccc2n(C(C)C)c1=O (centres unmarked) [Compound 88]    < 50%

Input: Tell me the measured Dmax of CNC(=O)COc1cc2cc(Nc3nc(N4CCC5(CC4)CC(C(C)(C)N4CCC(c6cccc7c6CN(C6CCC(=O)NC6=O)C7=O)CC4)C5)ncc3Cl)ccc2n(C(C)C)c1=O (centres unmarked) [Compound 154] , please.
Output: 50 to 70%

----------
- target system: BCL6 (Homo sapiens, UniProt P41182)
- Construct: endogenous in cells; host or cells: T47D breast cancer epithelial cells
- assay method text: Immunofluorescence protocol for high content imaging of BCL6 (degradation) in T47D cells, 3 days compound treatment
- Assay type: cell-based
- measurement setup: read-out: Mean DC50 (nM)* category
- Procedure: Immunofluorescence Protocol for High Content Imaging of BCL6 T47D cells were seeded in 100 μl volume of RPMI1640-10% FBS in a 96-well black/clear bottom plates for adherent lines (Corning #3904). Day 1. T47D breast cancer epithelial cells were seeded at a density so that confluence is ˜70-90% at endpoint. Cells were seeded at 7K/0.1 ml/well the morning prior to the addition of exemplary bifunctional degradation compounds. Day 2. […] Plates were equilibrated to room temperature prior to reading. […]
observation type: DC50

Reference set, count: 3
CNC(=O)COc1cc2cc(Nc3nc(N4CCC(N5CCC56CN(C5CCN(c7ccc8c(c7)C(=O)N(C7CCC(=O)NC7=O)C8=O)CC5)C6)CC4)ncc3Cl)ccc2n(C(C)C)c1=O (stereo not shown) [Compound 220]    10 to 50 nM
CNC(=O)COc1cc2cc(Nc3nc(N4CCC(O[C@H]5C[C@H](N6C[C@@H](C)N(c7ccc8c(c7)C(=O)N(C7CCC(=O)NC7=O)C8=O)[C@@H](C)C6)C5)CC4)ncc3Cl)ccc2n(C(C)C)c1=O (stereo partly shown) [Compound 244]    10 to 50 nM
CNC(=O)COc1cc2cc(Nc3nc(N4CCC(CN5CCC6(CC5)CN(c5ccc7c(c5C)C(=O)N(C5CCC(=O)NC5=O)C7=O)C6)CC4)ncc3Cl)ccc2n(C(C)C)c1=O (stereo not shown) [Compound 358]    < 10 nM

Input: I would be grateful if you could share the reported DC50 for CNC(=O)COc1cc2cc(Nc3nc(N4CCC(O[C@H]5C[C@H](N6CCC(F)(c7ccc8c(c7)C(=O)N(C7CCC(=O)NC7=O)C8=O)CC6)C5)CC4)ncc3Cl)ccc2n(C(C)C)c1=O (stereo partly shown) [Compound 276] .
Output: 10 to 50 nM
